# System: L. donovani IRFP axenic amastigotes
# test method notes: Primary single-concentration screening on axenic amastigotes, growth inhibition at 72 h
# Type: cell-based, Leishmania donovani
# test parameters: 10 µM, experiment 1, 72 h, axenic amastigotes

[
  {
    "compound": "COc1ccc2cc3[n+](cc2c1OC)CCc1cc(O)c(O)cc1-3.[Cl-] [Demethyleneberberine (chloride)]",
    "assay system": "L. donovani IRFP axenic amastigotes",
    "Growth Inhibition (%) at 72h, 10 µM_Exp1": 43.2
  },
  {
    "compound": "COc1cc2c(cc1O)C1Cc3ccc(OC)c(O)c3C[N+]1(C)CC2.[Cl-] (centres unmarked) [Cyclanoline (chloride)]",
    "assay system": "L. donovani IRFP axenic amastigotes",
    "Growth Inhibition (%) at 72h, 10 µM_Exp1": 77.56
  },
  {
    "compound": "COc1ccc2cc3[n+](cc2c1OC)CCc1cc2c(cc1-3)OCO2.O=S(=O)([O-])O [Berberine (sulfate)]",
    "assay system": "L. donovani IRFP axenic amastigotes",
    "Growth Inhibition (%) at 72h, 10 µM_Exp1": 70.74
  },
  {
    "compound": "Cc1ncc(CO)c(CO)c1O.Cl [Pyridoxine (hydrochloride)]",
    "assay system": "L. donovani IRFP axenic amastigotes",
    "Growth Inhibition (%) at 72h, 10 µM_Exp1": 79.17
  },
  {
    "compound": "CC(C)=CC[C@H](O)C1=CC(=O)c2c(O)ccc(O)c2C1=O [(-)-Alkannin]",
    "assay system": "L. donovani IRFP axenic amastigotes",
    "Growth Inhibition (%) at 72h, 10 µM_Exp1": 99.90
  },
  {
    "compound": "Br.O=C(CC1NCCCC1O)Cn1cnc2cc(Br)c(Cl)cc2c1=O (centres unmarked) [Halofuginone (hydrobromide)]",
    "assay system": "L. donovani IRFP axenic amastigotes",
    "Growth Inhibition (%) at 72h, 10 µM_Exp1": 100.16
  },
  {
    "compound": "COc1cc2c(cc1OC)-c1c(C)c3ccc(OC)c(OC)c3c[n+]1CC2.O=[N+]([O-])[O-] [Dehydrocorydaline (nitrate)]",
    "assay system": "L. donovani IRFP axenic amastigotes",
    "Growth Inhibition (%) at 72h, 10 µM_Exp1": 82.98
  },
  {
    "compound": "c1c2c(cc3c1OCO3)-c1cc3cc4c(cc3c[n+]1CC2)OCO4 [Pseudocoptisine]",
    "assay system": "L. donovani IRFP axenic amastigotes",
    "Growth Inhibition (%) at 72h, 10 µM_Exp1": 97.95
  }
]

====

# Tested on: L. donovani IRFP axenic amastigotes
# test method notes: Primary single-concentration screening on axenic amastigotes, growth inhibition at 72 h
# Format: cell-based, Leishmania donovani
# test parameters: 10 µM, experiment 1, 72 h, axenic amastigotes
readout kind: Growth Inhibition (%) at 72h, 10 µM_Exp1

[
  {
    "compound": "O=S(=O)([O-])O.c1c2c(cc3c1OCO3)-c1cc3ccc4c(c3c[n+]1CC2)OCO4 [Coptisine (Sulfate)]",
    "readout kind": "Growth Inhibition (%) at 72h, 10 µM_Exp1",
    "units of measure": "%",
    "meas value": 71.50
  },
  {
    "compound": "Cc1c2ccncc2c(C)c2c1[nH]c1ccccc12.Cl [Ellipticine (hydrochloride)]",
    "readout kind": "Growth Inhibition (%) at 72h, 10 µM_Exp1",
    "units of measure": "%",
    "meas value": 98.68
  },
  {
    "compound": "COc1ccc2cc3[n+](cc2c1OC)CCc1cc2c(cc1-3)OCO2.[Cl-] [Berberine (chloride)]",
    "readout kind": "Growth Inhibition (%) at 72h, 10 µM_Exp1",
    "units of measure": "%",
    "meas value": 99.29
  },
  {
    "compound": "CC[C@]1(O)C[C@@H]2CN(CCc3c([nH]c4ccccc34)[C@@](C(=O)OC)(c3cc4c(cc3OC)N(C)[C@H]3[C@@](O)(C(=O)OC)[C@H](OC(C)=O)[C@]5(CC)C=CCN6CC[C@]43[C@@H]65)C2)C1.O=S(=O)(O)O [Vinblastine (sulfate)]",
    "readout kind": "Growth Inhibition (%) at 72h, 10 µM_Exp1",
    "units of measure": "%",
    "meas value": 99.34
  },
  {
    "compound": "CCCCC/C=C\\C/C=C\\CCCCCCCC(=O)NCc1ccccc1 [N-Benzyllinoleamide]",
    "readout kind": "Growth Inhibition (%) at 72h, 10 µM_Exp1",
    "units of measure": "%",
    "meas value": 99.77
  },
  {
    "compound": "Cl.Cl.O=C(C[C@H]1NCCC[C@@H]1O)Cn1cnc2ccccc2c1=O [Febrifugine (dihydrochloride)]",
    "readout kind": "Growth Inhibition (%) at 72h, 10 µM_Exp1",
    "units of measure": "%",
    "meas value": 97.63
  },
  {
    "compound": "O=C1N[C@@H]2C(=C[C@H](O)[C@@H](O)[C@H]2O)c2cc3c(c(O)c21)OCO3",
    "readout kind": "Growth Inhibition (%) at 72h, 10 µM_Exp1",
    "units of measure": "%",
    "meas value": 84.56
  },
  {
    "compound": "COc1ccc2cc3[n+](cc2c1OC)CCc1cc2c(cc1-3)OCO2.O.[Cl-] [Berberine (chloride hydrate)]",
    "readout kind": "Growth Inhibition (%) at 72h, 10 µM_Exp1",
    "units of measure": "%",
    "meas value": 98.55
  },
  {
    "compound": "COc1cc(/C=C/C(=O)N2CCC=CC2=O)cc(OC)c1OC",
    "readout kind": "Growth Inhibition (%) at 72h, 10 µM_Exp1",
    "units of measure": "%",
    "meas value": 100.21
  },
  {
    "compound": "CCc1c2c(nc3ccccc13)-c1cc3c(c(=O)n1C2)COC(=O)[C@]3(O)CC",
    "readout kind": "Growth Inhibition (%) at 72h, 10 µM_Exp1",
    "units of measure": "%",
    "meas value": 96.57
  },
  {
    "compound": "CC[C@H]1CN2CCc3cc(OC)c(OC)cc3[C@@H]2C[C@@H]1C[C@H]1NCCc2cc(O)c(OC)cc21.Cl.Cl [Cephaeline (dihydrochloride)]",
    "readout kind": "Growth Inhibition (%) at 72h, 10 µM_Exp1",
    "units of measure": "%",
    "meas value": 96.96
  },
  {
    "compound": "CC[C@@]1(O)C(=O)OCc2c1cc1n(c2=O)Cc2cc3cc(OC)ccc3nc2-1",
    "readout kind": "Growth Inhibition (%) at 72h, 10 µM_Exp1",
    "units of measure": "%",
    "meas value": 97.42
  },
  {
    "compound": "COc1cc2c(cc1OC)-c1c(C)c3ccc(OC)c(OC)c3c[n+]1CC2.[Cl-] [Dehydrocorydaline (chloride)]",
    "readout kind": "Growth Inhibition (%) at 72h, 10 µM_Exp1",
    "units of measure": "%",
    "meas value": 95.47
  },
  {
    "compound": "CCCCCCCCCCCCCc1cc(=O)c2ccccc2n1C [Dihydroevocarpine]",
    "readout kind": "Growth Inhibition (%) at 72h, 10 µM_Exp1",
    "units of measure": "%",
    "meas value": 97.61
  },
  {
    "compound": "CC/C=C\\C/C=C\\C/C=C\\CCCCCCCC(=O)NCc1ccccc1 [N-Benzyllinolenamide]",
    "readout kind": "Growth Inhibition (%) at 72h, 10 µM_Exp1",
    "units of measure": "%",
    "meas value": 99.95
  }
]

====

# Test system: L. donovani IRFP axenic amastigotes
# test method notes: Primary single-concentration screening on axenic amastigotes, growth inhibition at 72 h
# Format: cell-based, Leishmania donovani
# test parameters: 10 µM, experiment 1, 72 h, axenic amastigotes
Would you please tag the item label 1 when its Growth Inhibition (%) at 72h, 10 µM_Exp1 is 90% or above, and label 0 when it is below?

[
  {
    "compound": "COc1ccc2c(C)c3[n+](cc2c1OC)CCc1cc2c(cc1-3)OCO2",
    "cat": "label 0"
  },
  {
    "compound": "CC[C@@]1(O)C(=O)OCc2c1cc1n(c2=O)Cc2cc3c(OC)cccc3nc2-1",
    "cat": "label 1"
  },
  {
    "compound": "CN1[C@@H](CC(=O)c2ccccc2)CCC[C@H]1CC(=O)c1ccccc1",
    "cat": "label 0"
  },
  {
    "compound": "CCc1ccc(O)c2cc3c(nc12)-c1cc2c(c(=O)n1C3)COC(=O)[C@]2(O)CC [12-Ethyl-9-hydroxycamptothecin]",
    "cat": "label 0"
  },
  {
    "compound": "CCOC1c2c(ccc3c2OCO3)-c2ccc3cc4c(cc3c2N1C)OCO4 (centres unmarked)",
    "cat": "label 1"
  },
  {
    "compound": "COc1ccc2c(c1OC)C(OC)N(C)c1c-2ccc2cc3c(cc12)OCO3 (centres unmarked)",
    "cat": "label 1"
  },
  {
    "compound": "Br.CN1[C@H]2C[C@H](OC(=O)[C@H](CO)c3ccccc3)C[C@@H]1[C@@H](O)C2 [Anisodamine (hydrobromide)]",
    "cat": "label 0"
  }
]
